- ASSAYED_SYSTEM: Alpha-2C adrenergic receptor (Homo sapiens, UniProt P18825)
- Sequence (P18825 whole entry): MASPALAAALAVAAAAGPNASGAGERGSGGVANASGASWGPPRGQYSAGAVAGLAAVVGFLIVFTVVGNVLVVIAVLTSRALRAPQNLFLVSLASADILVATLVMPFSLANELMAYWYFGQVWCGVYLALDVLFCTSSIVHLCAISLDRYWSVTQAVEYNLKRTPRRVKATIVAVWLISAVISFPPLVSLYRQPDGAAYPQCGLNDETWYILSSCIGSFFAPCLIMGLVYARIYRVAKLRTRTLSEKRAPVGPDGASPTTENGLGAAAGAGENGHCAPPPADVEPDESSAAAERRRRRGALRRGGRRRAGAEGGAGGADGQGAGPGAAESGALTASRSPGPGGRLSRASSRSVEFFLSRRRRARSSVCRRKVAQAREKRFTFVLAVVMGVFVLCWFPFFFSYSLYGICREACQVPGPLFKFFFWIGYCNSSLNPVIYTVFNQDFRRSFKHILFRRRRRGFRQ
pIC50: −log10 of the molar value.
PROPERTY_NAME: pIC50

> print(dat)
                            chemical.smiles  readout.number
1  O=C(c1ccc(N2CC3(COC3)C2)nc1)N1CCC(N2CCc3ccccc3C2)CC1            7.96

Origin of the recorded values: BindingDB's records for patent US9624198
